This collection of values is drawn from ChEMBL document CHEMBL2218924.

Each entry below lists one item and its recorded residual activity value.
Target: Homeodomain-interacting protein kinase 2 (Homo sapiens) (UniProt Q9H2X6)
Sequence (Q9H2X6 whole entry, looked up): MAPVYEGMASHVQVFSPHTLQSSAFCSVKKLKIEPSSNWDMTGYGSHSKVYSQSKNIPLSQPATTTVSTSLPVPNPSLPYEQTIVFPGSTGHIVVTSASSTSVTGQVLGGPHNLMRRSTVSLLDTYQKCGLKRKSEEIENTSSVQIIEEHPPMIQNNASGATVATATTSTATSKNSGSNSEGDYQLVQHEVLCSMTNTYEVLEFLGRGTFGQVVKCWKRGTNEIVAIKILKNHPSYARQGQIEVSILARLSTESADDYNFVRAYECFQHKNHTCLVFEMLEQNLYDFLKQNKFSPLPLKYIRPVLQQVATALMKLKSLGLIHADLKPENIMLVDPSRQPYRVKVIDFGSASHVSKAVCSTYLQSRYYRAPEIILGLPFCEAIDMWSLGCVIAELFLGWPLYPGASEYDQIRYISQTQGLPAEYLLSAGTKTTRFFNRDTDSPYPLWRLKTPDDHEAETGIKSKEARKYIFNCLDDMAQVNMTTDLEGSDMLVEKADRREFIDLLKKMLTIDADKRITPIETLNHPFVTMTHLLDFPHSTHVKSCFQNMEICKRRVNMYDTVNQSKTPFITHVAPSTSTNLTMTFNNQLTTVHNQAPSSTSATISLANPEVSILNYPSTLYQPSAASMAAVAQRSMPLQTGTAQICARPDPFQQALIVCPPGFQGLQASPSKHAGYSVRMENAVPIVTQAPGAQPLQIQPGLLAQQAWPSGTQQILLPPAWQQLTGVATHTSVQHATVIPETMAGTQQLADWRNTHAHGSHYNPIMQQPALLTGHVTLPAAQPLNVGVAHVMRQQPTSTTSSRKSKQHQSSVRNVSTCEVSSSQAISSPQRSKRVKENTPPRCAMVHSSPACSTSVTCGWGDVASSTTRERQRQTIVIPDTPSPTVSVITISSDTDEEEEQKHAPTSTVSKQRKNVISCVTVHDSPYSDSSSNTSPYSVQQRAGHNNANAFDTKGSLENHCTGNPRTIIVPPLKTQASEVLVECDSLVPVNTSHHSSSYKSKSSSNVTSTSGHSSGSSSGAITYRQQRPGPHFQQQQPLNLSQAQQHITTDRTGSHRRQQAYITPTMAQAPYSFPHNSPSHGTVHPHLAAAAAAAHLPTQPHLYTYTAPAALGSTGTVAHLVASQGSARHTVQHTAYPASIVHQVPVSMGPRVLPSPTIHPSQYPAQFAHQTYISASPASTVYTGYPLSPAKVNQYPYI
Settings: at 10 µM
A number alone suffices; assume %.

> print(dat)
                                   compound  test.result
1  C[S+]([O-])c1ccc(-c2nc(-c3ccc(F)cc3)c(-c3ccncc3)[nH]2)cc1 (stereo not given)          100

Using the record for "COc1ccc2c(c[n+](C)c3c4cc5c(cc4ccc23)OCO5)c1OC" , report its residual activity.
86

Using the record for "N/C(=N\[N+](=O)[O-])N/N=C\c1ccc(-c2cccc([N+](=O)[O-])c2)o1" , report its residual activity.
83

Using the record for "COc1cc(OC)c(/C=C2\C(=O)Nc3ccccc32)c(OC)c1" , report its residual activity.
96

Using the record for "c1cc(-c2cnn3cc(-c4ccc(OCCN5CCCCC5)cc4)cnc23)ccn1" , report its residual activity.
14
